System: T-47D breast
assay text: NCI tumour cell line growth inhibition, 48 h; in the data active means GI50 below about 0.43 µM; inactive means the rest
A correct response names exactly one class from active, inactive

# count of solved cases: 3
{"columns": ["molecule", "label"],
 "data": [
  ["CN1CCN(C2=NC(=O)/C(=C\\c3ccc(N(C)C)cc3)S2)CC1", "inactive"],
  ["COc1ccc(-n2cc(-c3ccc(OC)c(OC)c3)[nH]c2=O)cc1", "inactive"],
  ["CC1=NN(c2cccc(Cl)c2)C(=O)/C1=C\\c1cn(CC(O)CN2CCCCC2)c2ccccc12 (stereo not drawn)", "inactive"]
]}

Kindly provide the recorded test outcome for the following molecule: CN(C)CCC(=O)Nc1ccc(-n2cc(-c3cccc(NC(=S)Nc4cccc(-c5cn(-c6ccc(NC(=O)CCN(C)C)cc6)nn5)c4)c3)nn2)cc1
inactive

How was COc1cccc(-c2cc(C(=O)Nc3ccc(/C=C/c4ccc(OC5CCN(C)CC5)cc4)cc3)ccc2OC)c1 classified in this test?
inactive

Dear colleague, could you share the recorded outcome for CC(C)(C)C[C@H]1N[C@@H](C(=O)NC2CCC(O)CC2)[C@H](c2cccc(Cl)c2F)[C@@]12C(=O)Nc1cc(Cl)ccc12 (stereo partly drawn) when you have a moment?
inactive

Entry Cc1ccc(/C(=N/Nc2ccc([N+](=O)[O-])cc2)Sc2cc(Cl)c(C)cc2S(N)(=O)=O)cc1 : call = ?
inactive

Could you check what this test reported for CC(C)C[C@@H](N)[C@@H](O)C(=O)N[C@H](C(=O)N[C@H](C(=O)N[C@@H](CC(=O)O)C(=O)O)C(C)C)C(C)C ?
inactive

What is the recorded call for this molecule in the test? O=C(Nc1n[nH]c2cc(-c3cc(F)ccc3F)ccc12)C1CC1
inactive

What is the recorded call for this molecule in the test? C[C@@H]1C[C@@H]([C@H](O)CC2CC(=O)NC(=O)C2)C(=O)[C@@H](C)C1
active

Please let me know the test result on file for CCCCNC(c1ccc(Cl)cc1)C(O)c1ccc(Cl)cc1 (stereo not drawn) .
inactive

# lookup: test call for Cc1cccc(N2C(=O)/C(=C/C(Cl)=C/c3ccc([N+](=O)[O-])cc3)SC2=S)c1C
inactive

Could you please tell me the result logged for COc1ccc2c(c1)C(=O)c1c-2c(OCCCN(C)C)nc2cc(Br)ccc12 in this assay?
inactive
